- assay-target: recombinant EZH2-641F complex (EZH2 Y641F/EED/SUZ12/RbAp48/AEBP2) (Homo sapiens (Human), UniProt Q15910, Y641F)
- Sequence (Q15910 whole entry Y641F): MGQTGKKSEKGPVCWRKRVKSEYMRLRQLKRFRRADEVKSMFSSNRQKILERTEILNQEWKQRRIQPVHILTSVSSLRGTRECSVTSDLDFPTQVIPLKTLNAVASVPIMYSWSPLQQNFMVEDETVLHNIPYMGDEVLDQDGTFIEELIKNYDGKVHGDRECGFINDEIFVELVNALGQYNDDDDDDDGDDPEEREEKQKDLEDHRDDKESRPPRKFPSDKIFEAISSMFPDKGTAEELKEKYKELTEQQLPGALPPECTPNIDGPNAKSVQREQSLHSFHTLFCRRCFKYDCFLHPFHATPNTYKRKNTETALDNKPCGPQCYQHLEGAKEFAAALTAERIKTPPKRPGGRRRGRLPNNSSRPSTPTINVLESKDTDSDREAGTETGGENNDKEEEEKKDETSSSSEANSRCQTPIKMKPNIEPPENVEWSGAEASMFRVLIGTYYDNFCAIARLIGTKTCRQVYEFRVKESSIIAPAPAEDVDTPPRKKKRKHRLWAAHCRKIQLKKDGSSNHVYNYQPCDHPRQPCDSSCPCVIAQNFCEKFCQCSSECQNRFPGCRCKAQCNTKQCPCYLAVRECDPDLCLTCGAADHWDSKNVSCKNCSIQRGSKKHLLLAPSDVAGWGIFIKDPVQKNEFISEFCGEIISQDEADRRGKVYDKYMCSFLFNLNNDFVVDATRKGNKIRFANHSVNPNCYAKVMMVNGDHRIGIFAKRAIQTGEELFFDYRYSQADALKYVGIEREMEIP
- Sequence (O75530 whole entry partner): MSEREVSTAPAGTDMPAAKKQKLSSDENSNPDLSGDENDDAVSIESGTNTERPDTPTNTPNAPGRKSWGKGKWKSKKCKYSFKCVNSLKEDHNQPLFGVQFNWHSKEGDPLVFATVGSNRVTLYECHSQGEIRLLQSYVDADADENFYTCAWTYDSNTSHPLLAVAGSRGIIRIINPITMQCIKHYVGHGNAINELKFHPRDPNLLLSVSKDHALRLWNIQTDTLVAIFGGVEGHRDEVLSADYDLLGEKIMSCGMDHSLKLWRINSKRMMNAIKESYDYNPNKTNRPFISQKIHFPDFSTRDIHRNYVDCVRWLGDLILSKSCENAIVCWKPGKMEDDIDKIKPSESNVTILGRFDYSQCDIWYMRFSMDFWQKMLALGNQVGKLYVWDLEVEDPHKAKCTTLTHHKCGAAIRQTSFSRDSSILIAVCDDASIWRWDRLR
- Sequence (Q15022 whole entry partner): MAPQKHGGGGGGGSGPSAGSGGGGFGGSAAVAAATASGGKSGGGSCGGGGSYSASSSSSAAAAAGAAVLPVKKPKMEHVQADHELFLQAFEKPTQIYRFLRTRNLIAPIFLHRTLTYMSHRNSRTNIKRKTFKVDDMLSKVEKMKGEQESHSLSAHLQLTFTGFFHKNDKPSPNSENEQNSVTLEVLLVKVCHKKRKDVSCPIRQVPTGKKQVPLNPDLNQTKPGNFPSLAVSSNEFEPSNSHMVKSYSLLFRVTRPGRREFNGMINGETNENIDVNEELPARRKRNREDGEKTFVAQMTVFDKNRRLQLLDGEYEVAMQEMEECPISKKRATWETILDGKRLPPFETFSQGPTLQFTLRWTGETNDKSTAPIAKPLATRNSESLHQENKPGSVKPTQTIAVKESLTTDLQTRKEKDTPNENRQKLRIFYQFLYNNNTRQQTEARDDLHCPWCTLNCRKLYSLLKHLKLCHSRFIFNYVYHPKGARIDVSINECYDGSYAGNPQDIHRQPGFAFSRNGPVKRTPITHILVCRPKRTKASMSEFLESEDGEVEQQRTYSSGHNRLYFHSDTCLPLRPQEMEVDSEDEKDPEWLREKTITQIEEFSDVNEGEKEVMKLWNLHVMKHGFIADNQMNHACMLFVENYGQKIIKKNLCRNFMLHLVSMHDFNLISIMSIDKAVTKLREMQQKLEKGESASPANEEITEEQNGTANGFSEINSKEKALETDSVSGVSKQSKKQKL
- Sequence (Q09028 whole entry partner): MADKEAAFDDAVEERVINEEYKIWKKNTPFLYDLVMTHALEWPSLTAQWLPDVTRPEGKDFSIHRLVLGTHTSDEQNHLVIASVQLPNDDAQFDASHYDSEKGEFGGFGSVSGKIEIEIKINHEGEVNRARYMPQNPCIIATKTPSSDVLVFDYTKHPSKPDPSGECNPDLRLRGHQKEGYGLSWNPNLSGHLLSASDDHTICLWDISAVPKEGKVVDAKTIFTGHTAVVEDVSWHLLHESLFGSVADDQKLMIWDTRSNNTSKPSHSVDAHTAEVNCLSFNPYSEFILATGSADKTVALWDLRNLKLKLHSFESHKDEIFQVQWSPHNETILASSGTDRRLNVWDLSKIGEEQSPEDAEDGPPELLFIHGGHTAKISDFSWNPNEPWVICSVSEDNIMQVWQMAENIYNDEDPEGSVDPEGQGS
- Sequence (Q6ZN18 whole entry partner): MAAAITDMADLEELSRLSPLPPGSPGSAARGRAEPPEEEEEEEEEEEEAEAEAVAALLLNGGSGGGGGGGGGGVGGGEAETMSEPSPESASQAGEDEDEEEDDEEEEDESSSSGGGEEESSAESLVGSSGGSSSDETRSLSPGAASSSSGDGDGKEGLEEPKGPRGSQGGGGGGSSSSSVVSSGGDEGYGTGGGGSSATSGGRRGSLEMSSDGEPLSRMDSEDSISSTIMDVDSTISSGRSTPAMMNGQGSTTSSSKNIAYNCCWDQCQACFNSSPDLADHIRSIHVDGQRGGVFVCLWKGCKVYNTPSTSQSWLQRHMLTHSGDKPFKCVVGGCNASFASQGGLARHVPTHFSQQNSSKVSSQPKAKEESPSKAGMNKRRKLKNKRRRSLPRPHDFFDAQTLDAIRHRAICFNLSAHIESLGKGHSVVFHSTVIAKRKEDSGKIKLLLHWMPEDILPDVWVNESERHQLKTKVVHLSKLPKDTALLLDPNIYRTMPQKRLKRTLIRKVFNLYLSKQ
- protocol-description: EZH2 Histone Methyl Transferase Assay (scintillation proximity assay)
- measurement-setup: 350 nM histone peptide substrate, 500 nM 3H-SAM, 3 hours room temperature
pIC50: −log10 of the molar value.
pIC50 by entry:

compound	pIC50
Cc1cc(C)c(CNC(=O)c2cc3c(c(-c4ccc(N5CCNCC5)nc4)c2)OC2(CCCC2)C3)c(=O)[nH]1	> 6.30
Cc1cc(C)c(CNC(=O)c2cc3c(c(-c4ccc(CN5CCOCC5)cc4)c2)OC(C)C3)c(=O)[nH]1 (stereo not shown)	< 6.00
Cc1cc(C)c(CNC(=O)c2cc(Br)c3c(c2)CC(C)CCO3)c(=O)[nH]1 (stereo not shown)	< 6.00

Just so you know, measured pIC50 for Cc1cc(C)c(CNC(=O)c2cc(Br)c3c(c2)CC(C(C)C)O3)c(=O)[nH]1 (stereo not shown) came out at < 6.00

Just so you know, measured pIC50 for Cc1cc(C)c(CNC(=O)c2cc(-c3ccc(N4CCNCC4)cc3)c3c(c2)[C@@H]2CCC[C@]2(C)O3)c(=O)[nH]1 (racemic) came out at 6.00 to 6.30

Just so you know, measured pIC50 for Cc1cc(C)c(CNC(=O)c2cc(Cl)c3c(c2)CC(C)(C)O3)c(=O)[nH]1 came out at < 6.00

Just so you know, measured pIC50 for CCCc1cc(C)[nH]c(=O)c1CNC(=O)c1cc(Br)c2c(c1)CC(C)=C(C)CO2 came out at < 6.00
